# Target Or System: T1, SCAF4-CID (human, UniProt O95104 1-139)
# T1 sequence: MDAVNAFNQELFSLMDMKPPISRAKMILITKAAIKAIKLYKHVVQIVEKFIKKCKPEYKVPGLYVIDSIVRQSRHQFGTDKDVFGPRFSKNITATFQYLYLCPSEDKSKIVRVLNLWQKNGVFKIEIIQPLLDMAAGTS
# Experiment Notes: fluorescence polarization
Measurement Name: Kd
# number then unit; no other words

Fill in the blank: the reported Kd of GTGGG (ssDNA) [SCAF4_LS (D2_5nt)] is ____.
189 nM

Each recorded value in this set is attributed to paper doi:10.1101/2024.01.09.574928.
